- run_description: Clearance in ICR mouse at 5 mg/kg, iv or 25 mg/kg, po administered as single dose
- Type: ADME, organism-based
- test_context: in vivo
Documented clearance across a set of compounds
# value in L/h/kg; strip the unit string

// solved cases for clearance follow
                                     smiles  unit_info  meas_value
0  CS(=O)(=O)CCn1c(CN2C(=O)C3(CC3)c3ccncc32)cc2cc(Cl)ccc21     L/h/kg        3.25
1  O=C1N(Cc2cc3cc(Cl)ccc3n2[C@@H]2CCS(=O)(=O)C2)c2cnccc2C12CC2     L/h/kg        1.81

Turning now to a further record.
Briefly, clearance measured for CS(=O)(=O)CCn1c(CN2C(=O)C3(CC3)c3ccncc32)cc2cc(Cl)cnc21 : 1.42
